Tested on: Plasmodium falciparum
Experiment: GSK_TCMDC: Inhibition of Plasmodium falciparum Dd2 in whole red blood cells, using parasite LDH activity as an index of growth. Test compounds present at 2uM
Assay type: functional
observable: Inhibition (%)

>>> reported_measurement("N=C(N)NN=CC(=O)Nc1ccc(Cl)c(Cl)c1")
0
>>> reported_measurement("CC(C)c1sc(N2CCN(C)CC2)nc1C(=O)NCCc1ccc(Br)cc1.O=C(O)C(F)(F)F")
60
>>> reported_measurement("C#CCOc1ccc2ccccc2c1CNCCCCCCNCc1c(OCC#C)ccc2ccccc12.CS(=O)(=O)O")
98
>>> reported_measurement("CC(NC(C)c1cccc(Cl)c1)C(=O)Nc1cc(C(F)(F)F)ccc1N1CCOCC1 (stereo not drawn)")
33
>>> reported_measurement("COc1ccc(CN(C)CCCSc2ccc(NC(=O)c3cccc4c(=O)cc(-c5ccccc5)[nH]c34)cc2)cc1OC")
94
>>> reported_measurement("COc1ccc(CN(C)CCOc2ccc(NC(=O)c3cccc4c(=O)c5cc(SC)ccc5[nH]c34)cc2)cc1OC")
98
>>> reported_measurement("N/C(=N\\c1cccc(Cc2ccccc2)n1)NCc1ccccc1")
52
>>> reported_measurement("COc1c(C2CCN(CCCCNC(=O)c3ccc(-c4ccc(C#N)cc4)c(O)c3)CC2)ccc2c1CCCC2.Cl")
78
>>> reported_measurement("O=C(NCc1cccc(F)c1)Nc1cccc(-c2ccc(-c3nc4cc(C(F)(F)F)ccc4[nH]3)cc2)c1")
20
>>> reported_measurement("CN(C)CCNC(=O)N1CCCN(c2ncnc3cc(-c4ccccc4)sc23)CC1.O=C(O)C(F)(F)F")
37
>>> reported_measurement("COc1ccc(Cc2c(Cl)nc3nc(N)nc(N)c3c2C)c(OC)c1OC")
0
>>> reported_measurement("CC(C)C1=C[C@H]2C[C@]3(C4OCCO4)[C@@H]4CC[C@@H](C)[C@H]4C[C@@]2(COCc2cccc(C#N)c2)[C@]13C(=O)OC(c1ccccc1)c1ccccc1")
92
>>> reported_measurement("COc1ccc(NC(=O)[C@H](Cc2ccccc2)Nc2cc(C)nc(NCCN3CCCC3)n2)cc1.O=C(O)C(F)(F)F")
3
>>> reported_measurement("Cc1cc(=NN=Cc2ccc(F)cc2)c2cc(C(F)(F)F)ccc2[nH]1")
99
>>> reported_measurement("O=C(NCCCN1CCC(Cc2ccccc2)CC1)c1cc2c(Cl)nc3ccccc3c2s1")
40
>>> reported_measurement("COc1cc(Cc2cnc(N)nc2N)cc(OC(C)C)c1OC")
15
>>> reported_measurement("O=C(NC1CCN(Cc2ccccc2)CC1)c1ccc2c(=O)n(Cc3ccc(Cl)cc3)c(=S)[nH]c2c1")
100
>>> reported_measurement("COc1cc2ccccc2cc1CNCCCCCCNCc1cc2ccccc2cc1OC.CS(=O)(=O)O")
24

----------
System: HepG2
Assay: GSK_TCMDC: Percent inhibition of human HepG2 cell line. Test compounds present at 10uM.
Assay type: functional
Inhibition values for the molecules below.
observable: Inhibition (%)

>>> reported_measurement("Cc1cccc(C(=O)Nc2ccnc(N3CCC(N(C)Cc4cccc(C#N)c4)CC3)c2)c1.O=C(O)C(F)(F)F")
5
>>> reported_measurement("O=C(/C=C/c1ccc(Cl)c(Cl)c1)NCCCCCN1CCC(NC(=S)Nc2ccc(Cl)cc2Cl)CC1")
53
>>> reported_measurement("NC(=O)c1cccc(C(=O)Nc2ccc(-c3cccc(-c4nc5cc(C(F)(F)F)ccc5[nH]4)c3)cc2)c1")
74
>>> reported_measurement("Cc1cc(N(CCO)CCCN2CCCCC2)nc(Nc2ccc(Cl)cc2)n1.Cl")
12
>>> reported_measurement("COCCn1c(-c2nc(-c3ccc(F)cc3)cnc2N)nc2ccccc21")
16
>>> reported_measurement("O=C(Nc1ccc(Cl)cc1)Nc1cccc(-c2cccc(-c3nc4cc(C(F)(F)F)ccc4[nH]3)c2)c1")
87
>>> reported_measurement("CC1(C)N=C(N)N=C(N)N1OCc1cc2ccccc2cc1CON1C(N)=NC(N)=NC1(C)C")
0
>>> reported_measurement("COc1ccc2nccc(NC(=O)C3CCC(NCc4cnc(SC)c([N+](=O)[O-])c4)CC3)c2n1.Cl (centres undefined)")
8
>>> reported_measurement("Cn1nc(-c2ccc(CN[C@@H]3CCc4ccc(O)cc43)cc2)c2cnc(NC3CCCC3)nc21")
12

----------
Tested on: Plasmodium falciparum
Experiment: GSK_TCMDC: Inhibition of Plasmodium falciparum Dd2 in whole red blood cells, using parasite LDH activity as an index of growth. Test compounds present at 2uM
Type: functional
I would appreciate it if you labelled entries Criterion met when Inhibition is 70% or higher, otherwise Criterion not met.

>>> assigned_class("O=C(O)C(F)(F)F.c1cc(CNCC2CCCO2)cc(-c2cccc(-c3nc4ccccc4[nH]3)c2)c1 (centres undefined)")
"Criterion not met"
>>> assigned_class("Cl.O=C(Nc1ccc2c(c1)CCNCC2)c1ccc(-c2ccc(Cl)cc2)cc1")
"Criterion not met"
>>> assigned_class("Cl.Oc1ccc(Nc2nc(N3CCCC3)c3ccccc3n2)cc1")
"Criterion met"
>>> assigned_class("Cl.Nc1ncnc2occ(-c3ccc(NC(=O)Nc4cc(C(F)(F)F)ccc4F)cc3)c12 [GW770249A]")
"Criterion met"
>>> assigned_class("O=C(Nc1ccc(Cl)c(C(F)(F)F)c1)c1ccc(C(=O)Nc2ccc(Cl)c(C(F)(F)F)c2)cc1")
"Criterion not met"
>>> assigned_class("Br.CC1(C)NC(N)=NC(=N)N1OCCc1ccccc1")
"Criterion met"
>>> assigned_class("CCNc1cc(C(=O)N[C@@H](Cc2ccccc2)[C@H](O)CNC23CCC(CC2)C3)cc(N2CCCCS2(=O)=O)c1.Cl")
"Criterion met"
>>> assigned_class("Cc1cccc2nc(-c3ccc(-c4cccc(CNCc5ccc(S(C)(=O)=O)cc5)c4)s3)[nH]c12.O=C(O)C(F)(F)F")
"Criterion met"

----------
Tested on: HepG2
Assay: GSK_TCMDC: Percent inhibition of human HepG2 cell line. Test compounds present at 10uM.
Type: functional
In this section we review reported Inhibition values for a set of molecules.
observable: Inhibition

>>> reported_measurement("Cl.c1ccc(-c2ccc3c(Nc4ccc5[nH]ncc5c4)ccnc3c2)nc1")
"99%"
>>> reported_measurement("Cn1cncc1C(=O)Nc1ccc(-c2cccc(-c3nc4cc(F)ccc4[nH]3)c2)cc1")
"5%"
>>> reported_measurement("O=C(c1cc(-c2ccco2)n[nH]1)N1CCN(S(=O)(=O)c2ccc(Br)cc2)CC1")
"1%"
>>> reported_measurement("COc1ccc(NC(=O)c2ccc(-c3nc(-c4ccccc4)cs3)cc2)cc1N1CCN(C)CC1.O=C(O)C(=O)O")
"17%"
>>> reported_measurement("O=C(Nc1ccc(N2CCCN(Cc3cccc(F)c3)CC2)cc1)c1ccc(F)cc1.O=C(O)C(F)(F)F")
"0%"

----------
Tested on: HepG2
Experiment: GSK_TCMDC: Percent inhibition of human HepG2 cell line. Test compounds present at 10uM.
Type: functional
Response field class: string, computed from recorded Inhibition by ranges low (below 8%), middle (8% to below 30%), high (30% or more)

>>> assigned_class("Cc1ccc(NC(=O)c2c(C)noc2-c2snnc2C)cc1")
"low"
>>> assigned_class("SC(=Nc1ccc(Cl)c(Cl)c1)NN=Cc1ccccn1")
"high"
>>> assigned_class("O=C(/C=C/c1ccc(Cl)c(Cl)c1)N1CCC(C(O)CN2CCC(c3c[nH]c4ccccc34)CC2)CC1.O=C(O)C(F)(F)F (centres undefined)")
"middle"
>>> assigned_class("Cc1ccc(Nc2nc(-c3ccccn3)cs2)nc1")
"high"
>>> assigned_class("CN(C)Cc1cc2c(O)c(Cc3ccccc3)ccc2o1")
"low"
>>> assigned_class("CSc1ccc(CN2CCC(NC(=O)c3ccc(-c4cccc(C(F)(F)F)c4)s3)CC2)cc1.O=C(O)C(F)(F)F")
"high"
>>> assigned_class("Cl.N#Cc1ccc2c(c1)CCN(CCC1CCC(Nc3ncnc4ccccc34)CC1)C2 (centres undefined)")
"high"
>>> assigned_class("O=C(O)C(F)(F)F.c1ccc2[nH]c(-c3ccc(-c4ccc(CNCCc5ccncc5)cc4)s3)nc2c1")
"middle"
>>> assigned_class("O=C(Nc1cccc(-c2cccc(-c3nc4ccccc4[nH]3)c2)c1)Nc1ccc(Cl)c(Cl)c1")
"high"
>>> assigned_class("CN(C)Cc1ccc(-c2cc3ncnc(Nc4ccc(OCc5cccc(F)c5)c(Cl)c4)c3s2)[nH]1")
"high"
>>> assigned_class("CCn1cc(-c2cc(C(=O)Nc3ccc(OC)cc3C)c3ccccc3n2)c(C)n1")
"low"
>>> assigned_class("Cc1cc(O)c(-c2ccc(Sc3ccc(Cl)cc3)cc2)c(C)n1")
"low"
>>> assigned_class("CN(Cc1cc(C(F)(F)F)cc(C(F)(F)F)c1)C(=O)C1CNCC1c1ccc(F)cc1.Cl (centres undefined)")
"low"
>>> assigned_class("Cc1cc(F)ccc1N(c1nc(-c2cc(Cl)ccc2Cl)cs1)C1CCNC1.O=C(O)C(F)(F)F (centres undefined)")
"middle"
>>> assigned_class("COc1ccc(NC(=O)c2ccc(-c3ccc(-c4cccnc4)cc3)c(C)c2)cc1OCCN(C)C.Cl")
"middle"
>>> assigned_class("CN1CCN(CCNc2c3ccccc3nc3c2ccc2ccccc23)CC1.Cl")
"high"
>>> assigned_class("CC(C)CCn1c(Sc2ccc(C#N)c([N+](=O)[O-])c2)nnc1-c1ccc(N(C)C)cc1")
"middle"
>>> assigned_class("CCN(CCCN1CCCCC1)c1cc(C)nc(Nc2cc(Cl)cc(Cl)c2)n1.O=C(O)C(F)(F)F")
"high"
>>> assigned_class("CC(C)C(C(=O)n1ncc2c3c(N)nc(N)nc3ccc21)C(C)C")
"high"
>>> assigned_class("Cn1nc(C(F)(F)F)c(-c2ccc(F)cc2)c1NC(=O)Nc1ccc(F)cc1")
"low"
>>> assigned_class("NC(=O)COc1cccc2c1CCN(CCN1CCC(NC(=O)c3ccc(-c4ccc(Cl)cc4)cc3)CC1)C2")
"high"
>>> assigned_class("COc1c(Br)cc(Br)cc1-c1ccc(CN2C3CCCC2CCC3)[nH]1.Cl")
"high"
>>> assigned_class("CC(=O)Nc1cccc(CNCc2ccc(-c3cnc(N4CCCC(c5ccccc5)C4)nc3)cc2)c1.O=CO (centres undefined)")
"middle"
>>> assigned_class("COc1ccc(C=NN=c2cc(C)[nH]c3ccccc23)c2ccccc12")
"middle"
>>> assigned_class("Cc1cccc(CN2CCC(Oc3ccc(NC(=O)c4cccs4)cc3Cl)CC2)n1.O=C(O)C(F)(F)F")
"middle"
>>> assigned_class("COc1ccc(OC)c(Cc2cnc3nc(N)[nH]c(=O)c3c2C)c1")
"high"
>>> assigned_class("Br.CCCC1N=C(N)N=C(N)N1c1cccc([N+](=O)[O-])c1 (centres undefined)")
"low"
>>> assigned_class("Cc1cc2c(cc1Cl)N(C(=O)Nc1cc(F)cc(-c3cncnc3)c1)CC2")
"low"
>>> assigned_class("CC=CC(=O)N1CCN(c2nccc(-c3ccc(C(C)(C)C)cc3)n2)CC1")
"middle"
>>> assigned_class("CC(C)COc1cc(C(=O)Nc2cnc3ccccc3c2)ccc1[N+](=O)[O-]")
"middle"
>>> assigned_class("CC(C)(C)Oc1ccc(NC(=O)c2ccccc2O)cc1")
"low"
>>> assigned_class("COC(=O)c1ccc(OCC(O)CO)cc1O (centres undefined)")
"low"
>>> assigned_class("COc1ccc2ccccc2c1CCCCN1CCN(CC(c2ccc(F)cc2)N2CCN(C3CCCC3)CC2)CC1.O=C(O)C(F)(F)F (centres undefined)")
"high"
>>> assigned_class("COc1cc(Cc2cnc(N)nc2N)ccc1OCC(=O)Nc1ccc(C)cc1")
"middle"
>>> assigned_class("COc1ccc(NC(=O)Nc2nc3ccccc3s2)cc1N1CCN(C)CC1")
"low"
>>> assigned_class("O=C(/C=C/c1ccc(Cl)c(Cl)c1)N1CCC(CN2CCC(Cc3c[nH]c4ccccc34)CC2)CC1")
"middle"
>>> assigned_class("COc1ccc(-c2ccc(S(=O)(=O)Nc3cc4c(cc3OC(C)C)CCN(C)CC4)cc2)cc1.Cl")
"middle"
>>> assigned_class("CC(C)C[C@@H](/C=N/N1CCOC1=O)NC(=O)[C@H](CC(C)C)NC(=O)c1ccc(F)cc1")
"low"
